- test_summary: Cytotoxicity against human SH-SY5Y cells assessed as cell viability at 50 uM after 48 hrs by MTT assay
- Format: cell-based
- condition_notes: read-out: Activity
Measured viability at 48 h, 50 µM accompanies every entry in the list below.
Report the figure in % without appending any unit label.

Req: Request the reported viability at 48 h, 50 µM associated with O=C1C(=Cc2ccc(N3CCN(C(=O)c4ccco4)CC3)cc2)C(=O)c2ccccc21
Resp: 89.6

Req: Next molecule up: O=C1C(=Cc2ccc(N3CCN(c4ncccn4)CC3)cc2)C(=O)c2ccccc21
Resp: 89.6

###

- system_tested: Cholinesterase (Equus caballus, UniProt P81908)
- Sequence (P81908 whole entry): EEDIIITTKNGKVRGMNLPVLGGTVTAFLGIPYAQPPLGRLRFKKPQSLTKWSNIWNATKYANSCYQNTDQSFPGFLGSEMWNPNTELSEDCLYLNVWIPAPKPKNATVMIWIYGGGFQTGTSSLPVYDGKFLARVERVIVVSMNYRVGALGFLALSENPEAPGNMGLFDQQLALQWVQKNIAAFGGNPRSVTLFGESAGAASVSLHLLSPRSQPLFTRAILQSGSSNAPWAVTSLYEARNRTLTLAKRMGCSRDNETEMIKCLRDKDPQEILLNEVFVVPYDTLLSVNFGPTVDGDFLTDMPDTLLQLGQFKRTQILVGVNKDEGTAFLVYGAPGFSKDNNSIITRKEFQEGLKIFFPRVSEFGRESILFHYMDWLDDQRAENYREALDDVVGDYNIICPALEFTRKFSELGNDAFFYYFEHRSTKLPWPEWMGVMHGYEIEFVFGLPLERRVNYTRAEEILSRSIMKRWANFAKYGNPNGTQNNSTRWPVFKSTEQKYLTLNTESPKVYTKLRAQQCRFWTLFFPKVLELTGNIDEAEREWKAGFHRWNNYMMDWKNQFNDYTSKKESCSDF
- test_summary: Inhibition of equine serum BuChE using butyrylthiocholine iodide as substrate preincubated for 5 mins followed by substrate addition measured after 2 mins by Ellman's method
Property: pIC50; scope: individual compounds
The value called pIC50 is obtained by taking minus log10 of the concentration in mol/L.

Before answering, review these 4 worked examples.
O=C1C(=Cc2ccc(N3CCN(C(=O)c4ccco4)CC3)cc2)C(=O)c2ccccc21	5.58
O=C1C(=Cc2ccc(N3CCN(C(=O)c4ccccc4)CC3)cc2)C(=O)c2ccccc21	4.87
Cc1ccc(N2CCN(c3ccc(C=C4C(=O)c5ccccc5C4=O)cc3)CC2)cc1	6.41
O=C1C(=Cc2ccc(N3CCN(c4ccc(Cl)cc4)CC3)cc2)C(=O)c2ccccc21	5.96

Moving on to another compound below.
Req: What does the record list as pIC50 for O=C1C(=Cc2ccc(N3CCN(Cc4ccc5c(c4)OCO5)CC3)cc2)C(=O)c2ccccc21 ?
Resp: 5.37
